assay: Binding affinity to F10T duplex DNA (unknown origin) assessed as change in melting temperature by FRET assay
Quick rule: ΔTm of at least 0.3 °C means Satisfied, below that means Not satisfied.

smiles_record=O=C(CCN1CCCCC1)Nc1ccc(Nc2nc(-c3ccccc3NC(=O)CCN3CCCCC3)nc3ccccc23)cc1 qualitative_label=Satisfied
smiles_record=O=C(CN1CCOCC1)Nc1ccc(Nc2nc(-c3ccccc3NC(=O)CN3CCOCC3)nc3ccccc23)cc1 qualitative_label="Not satisfied"
smiles_record=CCN(CC)CCC(=O)Nc1ccc(Nc2nc(Cl)nc3ccccc23)cc1 qualitative_label="Not satisfied"
smiles_record=CCN(CC)CCC(=O)Nc1cc(Cl)ccc1-c1nc(NCCCN(C)C)c2ccccc2n1 qualitative_label=Satisfied
smiles_record=CCN(CC)CCC(=O)Nc1ccc(Nc2nc(-c3ccccc3N)nc3ccccc23)cc1 qualitative_label="Not satisfied"
smiles_record=O=C(CN1CCCC1)Nc1ccc(Nc2nc(-c3ccccc3NC(=O)CN3CCCC3)nc3ccccc23)cc1 qualitative_label=Satisfied
smiles_record=CCN(CC)CCCNCCC(=O)Nc1ccc(Nc2nc(-c3ccccc3NC(=O)CCNCCCN(CC)CC)nc3ccccc23)cc1 qualitative_label=Satisfied
smiles_record=CCN(CC)CCCOc1ccc(Nc2nc(N(CC)CC)nc3ccccc23)cc1 qualitative_label="Not satisfied"
smiles_record=CN(C)CCCNCCC(=O)Nc1ccc(Nc2nc(-c3ccccc3NC(=O)CCNCCCN(C)C)nc3ccccc23)cc1 qualitative_label=Satisfied
smiles_record=CN(C)CCCNCCC(=O)Nc1ccc(C(=O)Nc2cc(Cl)ccc2-c2nc(NCCCN(C)C)c3ccccc3n2)cc1 qualitative_label=Satisfied
smiles_record=CCN(CC)CC(=O)Nc1ccc(Nc2nc(N(CC)CC)nc3ccccc23)cc1 qualitative_label=Satisfied
smiles_record=CCN(CC)CCCCC(=O)Nc1ccc(Nc2nc(-c3ccccc3NC(=O)CCCCN(CC)CC)nc3ccccc23)cc1 qualitative_label=Satisfied
smiles_record=CCN(CC)CCNCCC(=O)Nc1ccc(Nc2nc(-c3ccccc3NC(=O)CCNCCN(CC)CC)nc3ccccc23)cc1 qualitative_label=Satisfied
smiles_record=CCN(CC)CCC(=O)Nc1ccc(Nc2nc(-c3ccccc3)nc3ccccc23)cc1 qualitative_label="Not satisfied"
smiles_record=CCN(CC)CCOc1ccc(Nc2nc(-c3ccccc3O)nc3ccccc23)cc1 qualitative_label="Not satisfied"
smiles_record=CCN(CC)CC(=O)Nc1ccc(Nc2nc(Cl)nc3ccccc23)cc1 qualitative_label="Not satisfied"
smiles_record=Oc1ccccc1-c1nc(Nc2ccc(OCCN3CCCCC3)cc2)c2ccccc2n1 qualitative_label="Not satisfied"

---

assay: Binding affinity to F10T duplex DNA (unknown origin) assessed as change in melting temperature by FRET assay
recorded.endpoint: ΔTm

smiles_record=CCN(CC)CCOc1ccc(Nc2nc(N(CC)CC)nc3ccccc23)cc1 value_observed="0.4 °C"
smiles_record=O=C(CCCN1CCCC1)Nc1ccc(Nc2nc(-c3ccccc3NC(=O)CCCN3CCCC3)nc3ccccc23)cc1 value_observed="0.8 °C"
smiles_record=CCN(CC)CCNCCOc1ccc(Nc2nc(-c3ccccc3O)nc3ccccc23)cc1 value_observed="0.2 °C"
smiles_record=Oc1ccccc1-c1nc(Nc2ccc(OCCN3CCOCC3)cc2)c2ccccc2n1 value_observed="0.1 °C"
smiles_record=CCN(CC)CCCC(=O)Nc1ccc(Nc2nc(-c3ccccc3NC(=O)CCCN(CC)CC)nc3ccccc23)cc1 value_observed="0.9 °C"
smiles_record=CCN(CC)CCC(=O)Nc1ccc(Nc2nc(N(CC)CC)nc3ccccc23)cc1 value_observed="0.2 °C"
smiles_record=CN(C)CCNCCC(=O)Nc1ccc(Nc2nc(-c3ccccc3NC(=O)CCNCCN(C)C)nc3ccccc23)cc1 value_observed="0.8 °C"
smiles_record=CN1CCN(CCOc2ccc(Nc3nc(-c4ccccc4O)nc4ccccc34)cc2)CC1 value_observed="0.1 °C"
smiles_record=Oc1ccccc1-c1nc(Nc2ccc(OCCN3CCCC3)cc2)c2ccccc2n1 value_observed="0.2 °C"

Taken from ChEMBL document CHEMBL3865800.
